Measured values drawn from patent US8217031B2 for this set.

# pKi values compiled below
measurement_target: [3H]serotonin re-uptake in synaptosome (Rattus norvegicus)
Construct: to give a synaptosome solution
Sequence (P31652 whole entry): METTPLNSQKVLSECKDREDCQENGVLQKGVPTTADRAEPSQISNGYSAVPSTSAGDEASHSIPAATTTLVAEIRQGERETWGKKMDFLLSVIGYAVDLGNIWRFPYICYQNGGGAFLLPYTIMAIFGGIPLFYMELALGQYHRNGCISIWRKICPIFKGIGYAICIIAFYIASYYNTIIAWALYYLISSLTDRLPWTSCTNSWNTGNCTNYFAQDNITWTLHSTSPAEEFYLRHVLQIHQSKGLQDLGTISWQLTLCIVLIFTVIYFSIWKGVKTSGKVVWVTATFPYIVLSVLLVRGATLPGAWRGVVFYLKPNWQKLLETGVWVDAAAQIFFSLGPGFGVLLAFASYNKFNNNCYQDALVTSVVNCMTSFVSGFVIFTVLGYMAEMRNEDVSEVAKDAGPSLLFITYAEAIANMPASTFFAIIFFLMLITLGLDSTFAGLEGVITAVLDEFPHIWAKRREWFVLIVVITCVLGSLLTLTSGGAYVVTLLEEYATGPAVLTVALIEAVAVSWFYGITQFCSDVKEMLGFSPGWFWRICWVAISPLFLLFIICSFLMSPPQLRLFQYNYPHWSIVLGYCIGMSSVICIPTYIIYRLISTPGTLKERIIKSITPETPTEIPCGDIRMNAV
test_protocol: Inhibition of serotonin reuptake in rat cerebral cortex synaptosome
assay_setup: Ki calculated from IC50 and Kd, read-out: Serotonin Reuptake Inhibiting Activity, Ki value
Structures can show the parent of a compound that is named as a salt.
Quick note: pKi values are minus log10 of concentrations in mol/L.

CN1CCC(Oc2cccc(Cl)c2Cl)c2ccoc2C1 (stereo not drawn) [Example 213, hydrochloride]    9.05
Cc1cc2c(s1)CN(C)CCC2Oc1cccc2ccccc12.Cl (stereo not drawn) [Example 102, hydrochloride]    8.47

Asked: Any idea what pKi was measured for CN1CCC(Oc2cccc3ccccc23)c2ccoc2C1 (stereo not drawn) [Example 179, hydrochloride] ?
Given back: 9.00
